Target: F508delCFTR (Homo sapiens, UniProt P13569, DEL508-508)
Construct: expressed in transfected cells; host or cells: CFBE41o- human lung-derived epithelial cells (CFBE4lo-F508delCFTR-HRP), doxycycline-inducible
Sequence (P13569 with tags, fused parts or gaps DEL508-508): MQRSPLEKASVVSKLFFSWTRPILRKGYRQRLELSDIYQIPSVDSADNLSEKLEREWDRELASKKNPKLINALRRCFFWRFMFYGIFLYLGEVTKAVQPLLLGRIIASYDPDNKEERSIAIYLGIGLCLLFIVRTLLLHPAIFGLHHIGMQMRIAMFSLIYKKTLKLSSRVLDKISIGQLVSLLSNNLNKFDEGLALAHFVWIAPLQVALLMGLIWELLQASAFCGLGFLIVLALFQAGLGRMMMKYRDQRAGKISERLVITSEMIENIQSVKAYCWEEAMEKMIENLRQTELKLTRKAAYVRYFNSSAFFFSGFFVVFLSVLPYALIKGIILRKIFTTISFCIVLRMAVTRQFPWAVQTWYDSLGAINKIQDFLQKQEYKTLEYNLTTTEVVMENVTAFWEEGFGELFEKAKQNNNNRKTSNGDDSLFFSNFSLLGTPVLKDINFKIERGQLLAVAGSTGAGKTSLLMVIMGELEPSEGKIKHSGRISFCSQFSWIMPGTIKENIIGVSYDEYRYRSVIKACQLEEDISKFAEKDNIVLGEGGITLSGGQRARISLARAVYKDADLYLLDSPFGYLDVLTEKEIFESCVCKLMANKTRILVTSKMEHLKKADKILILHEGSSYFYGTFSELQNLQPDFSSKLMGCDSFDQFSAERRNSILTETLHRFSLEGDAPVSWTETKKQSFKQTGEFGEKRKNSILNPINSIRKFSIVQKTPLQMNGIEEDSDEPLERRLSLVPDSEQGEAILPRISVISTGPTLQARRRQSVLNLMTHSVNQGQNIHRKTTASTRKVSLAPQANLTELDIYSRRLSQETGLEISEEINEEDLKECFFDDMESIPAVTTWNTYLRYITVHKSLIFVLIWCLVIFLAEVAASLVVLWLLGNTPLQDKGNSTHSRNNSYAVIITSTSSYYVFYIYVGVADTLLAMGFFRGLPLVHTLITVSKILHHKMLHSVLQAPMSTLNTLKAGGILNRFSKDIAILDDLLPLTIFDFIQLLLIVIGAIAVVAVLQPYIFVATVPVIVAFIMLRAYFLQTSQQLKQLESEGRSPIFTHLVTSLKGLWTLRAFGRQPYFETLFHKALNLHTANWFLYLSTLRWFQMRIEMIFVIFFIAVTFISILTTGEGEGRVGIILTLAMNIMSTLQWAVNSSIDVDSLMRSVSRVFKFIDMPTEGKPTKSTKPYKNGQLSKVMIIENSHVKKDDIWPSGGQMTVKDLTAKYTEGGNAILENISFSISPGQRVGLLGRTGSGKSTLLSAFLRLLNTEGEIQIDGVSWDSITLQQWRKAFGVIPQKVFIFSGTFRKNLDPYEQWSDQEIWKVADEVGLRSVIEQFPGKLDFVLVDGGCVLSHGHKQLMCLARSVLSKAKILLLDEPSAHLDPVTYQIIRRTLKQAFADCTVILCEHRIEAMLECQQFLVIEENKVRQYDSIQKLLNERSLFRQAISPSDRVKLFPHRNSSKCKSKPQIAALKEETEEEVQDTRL
Test: Cell Surface Expression-Horse Radish Peroxidase (CSE-HRP) Assay
Format: cell-based
Conditions: CSE-HRP; with co-corrector (2 μM of 3-[(2R,4R)-4-({[1-(2,2-difluoro-1,3-benzodioxol-5-yl)cyclopropyl]carbonyl}amino)-7-methoxy-3,4-dihydro-2H-chromen-2-yl]benzoic acid); read-out: EC50 (with co-corrector)
property_measured: EC50

Known EC50 results, listed for orientation:
Cc1ccc(C#N)c(N[C@H]2[C@H](C(C)(C)C)[C@@H](C(=O)O)N(C(=O)C3CCCCC3)[C@H]2c2ccccc2)n1 : 1000 to 10000 nM
COc1cc(C(C)(C)C)ccc1CN[C@H]1[C@H](C(C)(C)C)[C@@H](C(=O)O)N(C(=O)C2CCCCC2)[C@H]1c1cccnc1OC : 1000 to 10000 nM
COc1ccc(-c2ccc(C)nc2)cc1CN[C@H]1[C@H](C(C)(C)C)[C@@H](C(=O)O)N(C(=O)C2CCCCC2)[C@H]1c1ccccc1 : 1000 to 10000 nM
COc1ccc(C(C)(C)C)cc1CN[C@H]1[C@H](C(C)(C)C)[C@@H](C(=O)O)N(C(=O)Cc2nn(C)c(=O)c3ccccc23)[C@H]1c1ccccc1 : 1000 to 10000 nM
COc1ccc(CN[C@@H]2[C@@H](C(C)(C)C)[C@H](C(=O)O)N(C(=O)C3CCCCC3)[C@@H]2c2ccccc2)c(OC)c1Cl (racemic) : 1000 to 10000 nM
COc1cc(C(C)(C)C)ccc1CN[C@H]1[C@H](C(C)(C)C)[C@@H](C(=O)O)N(C(=O)C2CCCCC2)[C@H]1c1ccccc1OC : < 1000 nM
COc1ccc(-c2cccnc2OC)cc1CN[C@H]1[C@H](C(C)(C)C)[C@@H](C(=O)O)N(C(=O)C2CCCCC2)[C@H]1c1ccccc1 : 1000 to 10000 nM
CC(C)(C)[C@@H]1[C@@H](NCc2ccccc2OC(F)(F)F)[C@@H](c2ccccc2)N(C(=O)C2CCCCC2)[C@H]1C(=O)O (racemic) : 1000 to 10000 nM

### Prompt Item COc1ccc(F)cc1CN[C@@H]1[C@@H](C(C)(C)C)[C@H](C(=O)O)N(C(=O)OC(C)C)[C@@H]1c1ccccc1 (racemic) : provide EC50
### Response 1000 to 10000 nM

### Prompt Item `COc1ccc(C(C)(C)C)cc1CN[C@H]1[C@H](C(C)(C)C)[C@@H](C(=O)O)N(C(=O)c2coc3ccccc23)[C@H]1c1ccccc1` : provide EC50
### Response < 1000 nM

### Prompt Item `COc1ccc(C(F)(F)F)cc1CN[C@H]1[C@H](C(C)(C)C)[C@@H](C(=O)O)N(C(=O)[C@H](OC)c2ccccc2)[C@H]1c1ccccc1N(C)C` : provide EC50
### Response 1000 to 10000 nM

### Prompt Item `Cc1cc(C(F)(F)F)cc(N[C@@H]2[C@@H](C)[C@H](C(=O)O)N(C(=O)N(C(C)C)C(C)C)[C@@H]2c2ccccc2)n1` : provide EC50
### Response 1000 to 10000 nM

### Prompt Item COc1ncc(C2CCC2)cc1CN[C@H]1[C@H](C(C)(C)C)[C@@H](C(=O)O)N(C(=O)[C@@H]2CCC[C@H](C(F)(F)F)C2)[C@H]1c1ccccc1 (relative stereo) : provide EC50
### Response 1000 to 10000 nM

### Prompt Item `COc1ccc(C(C)C)cc1CN[C@H]1[C@H](C(C)(C)OC)[C@@H](C(=O)O)N(C(=O)C2CCCCC2)[C@H]1c1ccccc1` : provide EC50
### Response < 1000 nM

----------
Target: F508delCFTR (Homo sapiens, UniProt P13569, DEL508-508)
Construct: expressed in transfected cells; host or cells: CFBE41o- human lung-derived epithelial cells (CFBE4lo-F508delCFTR-HRP), doxycycline-inducible
Assay: Cell Surface Expression-Horse Radish Peroxidase (CSE-HRP) Assay;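 as to Maximum % activity (without co-corrector): percent of the 2 µM on-plate positive control corrector response above DMSO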
Format: cell-based
Details: test compound without co-corrector; maximum at any tested concentration, normalized to on-plate positive control; read-out: Maximum % activity (without co-corrector)
property_measured: Emax

Known Emax results, listed for orientation:
COc1cc2ccccc2cc1CN[C@H]1[C@H](C(C)(C)C)[C@@H](C(=O)O)N(C(=O)OC(C)C)[C@H]1c1ccccc1 : > 200%
COc1ncc(-c2cccnc2)cc1CN[C@H]1[C@H](C(C)(C)C)[C@@H](C(=O)O)N(C(=O)C2CCCCC2)[C@H]1c1ccccc1 : < 100%
COc1cccc([C@H]2[C@@H](NCc3cc(C(F)(F)F)ccc3OC)[C@H](C(C)(C)C)[C@@H](C(=O)O)N2C(=O)C2CCCOC2)n1 (mixture of isomers) : < 100%

Let us examine a further case.
### Prompt Item COc1ccc(C(F)(F)F)cc1CN[C@H]1[C@H](C(C)(C)C)[C@@H](C(=O)O)N(C(=O)C2CC(C)CC(C)C2)[C@H]1c1ccccc1 (stereo partly shown) : provide Emax
### Response 100 to 200%

----------
Biological target: F508delCFTR (Homo sapiens, UniProt P13569, DEL508-508)
Construct: expressed in transfected cells; host or cells: CFBE41o- human lung-derived epithelial cells (CFBE4lo-F508delCFTR-HRP), doxycycline-inducible
Assay: Cell Surface Expression-Horse Radish Peroxidase (CSE-HRP) Assay
Type: cell-based
Settings: test compound without co-corrector; read-out: EC50 (without co-corrector)
Recorded EC50 values for a group of compounds are listed next.

COc1ccc(C(C)(C)C)cc1CN[C@H]1[C@H](C(C)(C)C)[C@@H](C(=O)O)N(C(=O)C2C3CCCC32)[C@H]1c1cccnc1N(C)C (some centres unmarked) : 1000 to 10000 nM
COc1ccc(OC(F)(F)F)cc1CN[C@H]1[C@H](C(C)(C)C)[C@@H](C(=O)O)N(C(=O)C2CCCCC2)[C@H]1c1cccnc1OC : 1000 to 10000 nM
COc1ccc(C(C)(C)C)cc1CN[C@H]1[C@H](C(C)(C)C)[C@@](C)(C(=O)O)N(C(=O)C2CCCCC2)[C@H]1c1ccccc1 (racemic) : > 10000 nM
COc1ncc(-c2ccc(C)cc2)cc1CN[C@H]1[C@H](C(C)(C)C)[C@@H](C(=O)O)N(C(=O)C2CCCCC2)[C@H]1c1ccccc1 : < 1000 nM
COc1cc(C(F)(F)F)ccc1CN[C@H]1[C@H](C(C)(C)C)[C@@H](C(=O)O)N(C(=O)C2CCCCC2)[C@H]1c1ccccc1C : < 1000 nM

### Prompt Item COc1cc(C(F)(F)F)ccc1CN[C@@H]1[C@@H](C(C)(C)C)[C@H](C(=O)O)N(C(=O)OC(C)C)[C@@H]1c1cccnc1N(C)C (racemic) : provide EC50
### Response 1000 to 10000 nM

### Prompt Item `COc1ncc(C2(C)CC2)cc1CN[C@H]1[C@H](C(C)(C)C)[C@@H](C(=O)O)N(C(=O)C2CCCCC2)[C@H]1c1ccccc1` : provide EC50
### Response 1000 to 10000 nM

### Prompt Item COc1ccc(C(C)(C)C)cc1CN[C@H]1[C@H](C(C)(C)C)[C@@H](C(=O)O)N(C(=O)C(C)Oc2cc(C)cc(C)c2)[C@H]1c1ccccc1 (some centres unmarked) : provide EC50
### Response 1000 to 10000 nM

----------
Biological target: F508delCFTR (Homo sapiens, UniProt P13569, DEL508-508)
Construct: expressed in transfected cells; host or cells: CFBE41o- human lung-derived epithelial cells (CFBE4lo-F508delCFTR-HRP), doxycycline-inducible
Experiment: Cell Surface Expression-Horse Radish Peroxidase (CSE-HRP) Assay;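 as to Maximum % activity (without co-corrector): percent of the 2 µM on-plate positive control corrector response above DMSO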
Assay type: cell-based
Details: test compound without co-corrector; maximum at any tested concentration, normalized to on-plate positive control; read-out: Maximum % activity (without co-corrector)
Recorded Emax values for a group of compounds are listed next.

Known Emax results, listed for orientation:
COc1ccc(C23CC(C2)C3)cc1CN[C@H]1[C@H](C(C)(C)C)[C@@H](C(=O)O)N(C(=O)C2CCCCC2)[C@H]1c1ccccc1 : > 200%
COc1ccc(C(C)(C)C)cc1CN[C@H]1[C@H](C(C)(C)C)[C@@H](C(=O)O)N(C(=O)C2CCC(F)(F)CC2)[C@H]1c1ccccc1 : 100 to 200%
COc1ccc(C(C)(C)C)cc1CN[C@H]1[C@H](C(C)(C)C)[C@@H](C(=O)O)N(C(=O)c2cnn(C)c2-c2ccccc2)[C@H]1c1ccccc1 : < 100%
COc1ncc(C2CCC2)cc1CN[C@H]1[C@H](C(C)(C)C)[C@@H](C(=O)O)N(C(=O)[C@@H]2CCCO2)[C@H]1c1cccnc1C1CC1 : 100 to 200%
COc1cc(Cl)ccc1CN[C@@H]1[C@@H](C(C)(C)C)[C@H](C(=O)O)N(C(=O)C2CCCCC2)[C@@H]1c1ccccc1 (racemic) : > 200%
CC(C)(C)[C@@H]1[C@@H](Nc2ccc(C(F)(F)F)cn2)[C@@H](c2ccccc2)N(C(=O)C2CCCCC2)[C@H]1C(=O)O (racemic) : < 100%
C#CCOC(=O)N1[C@H](C(=O)O)[C@@H](C(C)(C)C)[C@H](NCc2cc(C(C)(C)C)ccc2OC)[C@@H]1c1ccccc1 : > 200%
COc1ncc(C2CCC2)cc1CN[C@H]1[C@H](C(C)(C)C)[C@@H](C(=O)O)N(C(=O)[C@H]2CCCCO2)[C@H]1c1ccccc1F : 100 to 200%
COc1ccc2c(c1)CCC2C(=O)N1[C@H](C(=O)O)[C@@H](C(C)(C)C)[C@H](NCc2cc(C(C)(C)C)ccc2OC)[C@@H]1c1ccccc1 (stereo partly shown) : > 200%
COc1cc(C(F)(F)F)ccc1CN[C@H]1[C@H](C23CC(C2)C3)[C@@H](C(=O)O)N(C(=O)C2CCCCC2)[C@H]1c1ccccc1 : 100 to 200%

### Prompt Item COc1ccc(C(C)(C)C)cc1CN[C@H]1[C@H](C(C)(C)C)[C@@H](C(=O)O)N(C(=O)C2CCOC(C(C)C)C2)[C@H]1c1ccccc1 (stereo partly shown) : provide Emax
### Response > 200%

### Prompt Item `COc1cccc(-c2cc(CN[C@H]3[C@H](C(C)(C)C)[C@@H](C(=O)O)N(C(=O)C4CCCCC4)[C@H]3c3ccccc3)c(OC)cn2)c1` : provide Emax
### Response < 100%

### Prompt Item CC(C)(C)[C@@H]1[C@@H](NCc2cc(F)ccc2S(C)(=O)=O)[C@@H](c2ccccc2)N(C(=O)C2CCCCC2)[C@H]1C(=O)O (racemic) : provide Emax
### Response < 100%
